experimental_target: 5-hydroxytryptamine receptor 1E (Homo sapiens)
Sequence (P28566 whole entry): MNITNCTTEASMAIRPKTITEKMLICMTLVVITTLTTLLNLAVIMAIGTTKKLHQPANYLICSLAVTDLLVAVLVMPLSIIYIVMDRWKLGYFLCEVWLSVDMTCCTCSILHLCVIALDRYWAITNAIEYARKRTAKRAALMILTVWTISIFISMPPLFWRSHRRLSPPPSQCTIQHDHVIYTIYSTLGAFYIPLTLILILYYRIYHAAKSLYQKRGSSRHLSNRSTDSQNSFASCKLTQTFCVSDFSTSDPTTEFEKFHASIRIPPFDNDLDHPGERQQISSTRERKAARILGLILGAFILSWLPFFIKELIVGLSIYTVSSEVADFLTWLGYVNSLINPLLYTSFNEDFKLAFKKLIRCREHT
endpoint: Ki

molecule_smiles | reported
Cc1nccc2c1C(C)(C)Nc1cc(Br)ccc1-2 | > 10 µM

* * *

experimental_target: Sodium-dependent dopamine transporter (Homo sapiens)
Sequence (Q01959 whole entry): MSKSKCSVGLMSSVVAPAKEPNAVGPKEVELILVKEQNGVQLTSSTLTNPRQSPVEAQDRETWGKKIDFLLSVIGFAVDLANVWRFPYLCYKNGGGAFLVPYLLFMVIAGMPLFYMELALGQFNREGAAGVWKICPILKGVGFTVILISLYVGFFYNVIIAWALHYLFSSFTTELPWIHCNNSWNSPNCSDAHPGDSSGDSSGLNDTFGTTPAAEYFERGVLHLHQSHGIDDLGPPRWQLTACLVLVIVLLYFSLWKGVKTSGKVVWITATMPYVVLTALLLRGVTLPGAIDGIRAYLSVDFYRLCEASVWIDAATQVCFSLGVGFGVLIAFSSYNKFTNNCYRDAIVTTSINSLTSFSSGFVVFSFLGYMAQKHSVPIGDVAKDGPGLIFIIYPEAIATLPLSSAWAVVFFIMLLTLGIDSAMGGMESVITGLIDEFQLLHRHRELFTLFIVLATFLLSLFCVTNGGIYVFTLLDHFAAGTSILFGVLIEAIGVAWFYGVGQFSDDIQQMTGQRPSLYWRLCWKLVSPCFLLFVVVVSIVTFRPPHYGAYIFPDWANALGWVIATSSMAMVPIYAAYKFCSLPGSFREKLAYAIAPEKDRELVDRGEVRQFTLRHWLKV

molecule_smiles | Ki
Cc1nccc2c1C(C)(C)Nc1cc(Br)ccc1-2 | > 10 µM

* * *

experimental_target: Alpha-2A adrenergic receptor (Homo sapiens, UniProt P08913)
Sequence (P08913 whole entry): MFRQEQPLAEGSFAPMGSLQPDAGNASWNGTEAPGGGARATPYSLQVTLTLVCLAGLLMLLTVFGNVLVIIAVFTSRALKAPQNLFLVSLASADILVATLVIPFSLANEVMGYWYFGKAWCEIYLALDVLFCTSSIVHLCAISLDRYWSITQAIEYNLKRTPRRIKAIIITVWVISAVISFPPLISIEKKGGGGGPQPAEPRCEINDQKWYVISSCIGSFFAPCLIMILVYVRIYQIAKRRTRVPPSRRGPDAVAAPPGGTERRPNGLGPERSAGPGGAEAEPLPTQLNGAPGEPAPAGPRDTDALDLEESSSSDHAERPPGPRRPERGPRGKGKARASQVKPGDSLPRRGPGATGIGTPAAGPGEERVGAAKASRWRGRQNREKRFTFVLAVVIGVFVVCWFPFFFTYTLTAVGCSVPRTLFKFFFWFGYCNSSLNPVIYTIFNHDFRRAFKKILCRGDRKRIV
pKi: −log10 of the molar value.

molecule_smiles | pKi
Cc1nccc2c1C(C)(C)Nc1cc(Br)ccc1-2 | < 5.00
